tested on: Aspergillus flavus; test: Antifungal activity against Aspergillus flavus TCC 204304 after 48 hrs by two fold serial dilution method; type: functional; details: TCC 204304, 48 h
Measured MIC, listed per entry for reference.

- compound: "CCCCN(CCCC)CC(O)COc1cc2oc3cc(OCC(O)CN(CCCC)CCCC)c(OC)c(CC=C(C)C)c3c(=O)c2c(O)c1CC=C(C)C (centres undefined)"
  valueOperator: "="
  MIC (µg/mL): 12.5
- compound: "CC[C@H](C)C[C@H](C)CCCCCCCCC(=O)N[C@H]1C[C@@H](O)[C@@H](NCCN)NC(=O)[C@@H]2[C@@H](O)CCN2C(=O)[C@H]([C@H](O)CCN)NC(=O)[C@H]([C@H](O)[C@@H](O)c2ccc(O)cc2)NC(=O)[C@@H]2C[C@@H](O)CN2C(=O)[C@H]([C@@H](C)O)NC1=O"
  valueOperator: ">"
  MIC (µg/mL): 50
- compound: "COc1c(OCC(O)CNC(=N)N)cc2oc3cc(OCC(O)CNC(=N)N)c(CC=C(C)C)c(O)c3c(=O)c2c1CC=C(C)C (centres undefined)"
  valueOperator: "="
  MIC (µg/mL): 6.25
- compound: "C[C@@H]1C/C=C/C=C/C=C/C=C/[C@H](O[C@@H]2O[C@H](C)[C@@H](O)[C@H](N)[C@@H]2O)C[C@@H]2O[C@](O)(C[C@@H](O)C[C@H]3O[C@@H]3/C=C/C(=O)O1)C[C@H](O)[C@H]2C(=O)O"
  valueOperator: ">"
  MIC (µg/mL): 50

* * *

tested on: Bacillus cereus; experiment: Antibacterial activity against Bacillus cereus ATCC11778 by two fold serial dilution method; assay type: functional

- compound: "CCCCN(CCCC)CC(O)COc1cc2oc3cc(OCC(O)CN(CCCC)CCCC)c(OC)c(CC=C(C)C)c3c(=O)c2c(O)c1CC=C(C)C (centres undefined)"
  MIC: "> 50 µg/mL"
- compound: "CCN(CC)CC(O)COc1cc2oc3cc(OCC(O)CN(CC)CC)c(OC)c(CC=C(C)C)c3c(=O)c2c(O)c1CC=C(C)C (centres undefined)"
  MIC: "1.56 to 3.13 µg/mL"
- compound: "CCCN(CCC)CC(O)COc1cc2oc3cc(OCC(O)CN(CCC)CCC)c(OC)c(CC=C(C)C)c3c(=O)c2c(O)c1CC=C(C)C (centres undefined)"
  MIC: "6.25 to 12.5 µg/mL"
- compound: "COc1c(OCC(O)CNC(=N)N)cc2oc3cc(OCC(O)CNC(=N)N)c(CC=C(C)C)c(O)c3c(=O)c2c1CC=C(C)C (centres undefined)"
  MIC: "1.56 to 3.13 µg/mL"

* * *

tested on: Aspergillus brasiliensis; assay: Antifungal activity against Aspergillus brasiliensis TCC16404 after 48 hrs by two fold serial dilution method; format: functional; details: TCC16404, 48 h

- compound: "C[C@@H]1C/C=C/C=C/C=C/C=C/[C@H](O[C@@H]2O[C@H](C)[C@@H](O)[C@H](N)[C@@H]2O)C[C@@H]2O[C@](O)(C[C@@H](O)C[C@H]3O[C@@H]3/C=C/C(=O)O1)C[C@H](O)[C@H]2C(=O)O"
  unitDescriptor: "µg/mL"
  valueOperator: "="
  MIC: 6.25
- compound: "COc1c(OCC(O)CNC(=N)N)cc2oc3cc(OCC(O)CNC(=N)N)c(CC=C(C)C)c(O)c3c(=O)c2c1CC=C(C)C (centres undefined)"
  unitDescriptor: "µg/mL"
  valueOperator: "="
  MIC: 3.13
- compound: "CCCCN(CCCC)CC(O)COc1cc2oc3cc(OCC(O)CN(CCCC)CCCC)c(OC)c(CC=C(C)C)c3c(=O)c2c(O)c1CC=C(C)C (centres undefined)"
  unitDescriptor: "µg/mL"
  valueOperator: "="
  MIC: 3.13
- compound: "CC[C@H](C)C[C@H](C)CCCCCCCCC(=O)N[C@H]1C[C@@H](O)[C@@H](NCCN)NC(=O)[C@@H]2[C@@H](O)CCN2C(=O)[C@H]([C@H](O)CCN)NC(=O)[C@H]([C@H](O)[C@@H](O)c2ccc(O)cc2)NC(=O)[C@@H]2C[C@@H](O)CN2C(=O)[C@H]([C@@H](C)O)NC1=O"
  unitDescriptor: "µg/mL"
  valueOperator: ">"
  MIC: 50

* * *

Measured MIC, listed per entry for reference.
test system: Candida albicans; experiment: Antifungal activity against Candida albicans ATCC 10231 after 24 hrs by two fold serial dilution method; format: functional; conditions: ATCC 10231, 24 h

- compound: "COc1c(OCC(=O)N[C@@H](CCCNC(=N)N)C(=O)OC(C)(C)C)cc2oc3cc(OCC(=O)N[C@@H](CCCNC(=N)N)C(=O)OC(C)(C)C)c(CC=C(C)C)c(O)c3c(=O)c2c1CC=C(C)C"
  valueOperator: "="
  MIC / µg/mL: 12.5
- compound: "COc1c(OCC(O)CNC(=N)N)cc2oc3cc(OCC(O)CNC(=N)N)c(CC=C(C)C)c(O)c3c(=O)c2c1CC=C(C)C (configuration not stated)"
  valueOperator: "="
  MIC / µg/mL: 0.78
- compound: "CCCCN(C)CC(O)COc1cc2oc3cc(OCC(O)CN(C)CCCC)c(OC)c(CC=C(C)C)c3c(=O)c2c(O)c1CC=C(C)C (configuration not stated)"
  valueOperator: "="
  MIC / µg/mL: 3.13
- compound: "CCN(CC)CC(O)COc1cc2oc3cc(OCC(O)CN(CC)CC)c(OC)c(CC=C(C)C)c3c(=O)c2c(O)c1CC=C(C)C (configuration not stated)"
  valueOperator: "="
  MIC / µg/mL: 6.25
- compound: "CCCC[N+](C)(CCCC)CC(O)COc1cc2oc3cc(OCC(O)C[N+](C)(CCCC)CCCC)c(OC)c(CC=C(C)C)c3c(=O)c2c(O)c1CC=C(C)C.[I-].[I-] (configuration not stated)"
  valueOperator: "="
  MIC / µg/mL: 6.25
- compound: "COc1c(OCC(O)CN2CCOCC2)cc2oc3cc(OCC(O)CN4CCOCC4)c(CC=C(C)C)c(O)c3c(=O)c2c1CC=C(C)C (configuration not stated)"
  valueOperator: "="
  MIC / µg/mL: 6.25
- compound: "COc1c(O)cc2oc3cc(O)c(CC=C(C)C)c(O)c3c(=O)c2c1CC=C(C)C"
  valueOperator: ">"
  MIC / µg/mL: 50

* * *

Measured MIC, listed per entry for reference.
system: Fusarium solani; assay: Antifungal activity against Fusarium solani 52628 after 48 hrs by two fold serial dilution method; assay type: functional; conditions: Fusarium solani, 52628, 48 h

- compound: "CC[C@H](C)C[C@H](C)CCCCCCCCC(=O)N[C@H]1C[C@@H](O)[C@@H](NCCN)NC(=O)[C@@H]2[C@@H](O)CCN2C(=O)[C@H]([C@H](O)CCN)NC(=O)[C@H]([C@H](O)[C@@H](O)c2ccc(O)cc2)NC(=O)[C@@H]2C[C@@H](O)CN2C(=O)[C@H]([C@@H](C)O)NC1=O [CASPOFUNGIN]"
  MIC: "> 50 µg/mL"
- compound: "CCCCN(CCCC)CC(O)COc1cc2oc3cc(OCC(O)CN(CCCC)CCCC)c(OC)c(CC=C(C)C)c3c(=O)c2c(O)c1CC=C(C)C (centres undefined)"
  MIC: "6.25 µg/mL"
- compound: "COc1c(OCC(O)CNC(=N)N)cc2oc3cc(OCC(O)CNC(=N)N)c(CC=C(C)C)c(O)c3c(=O)c2c1CC=C(C)C (centres undefined)"
  MIC: "3.13 µg/mL"
- compound: "C[C@@H]1C/C=C/C=C/C=C/C=C/[C@H](O[C@@H]2O[C@H](C)[C@@H](O)[C@H](N)[C@@H]2O)C[C@@H]2O[C@](O)(C[C@@H](O)C[C@H]3O[C@@H]3/C=C/C(=O)O1)C[C@H](O)[C@H]2C(=O)O [NATAMYCIN]"
  MIC: "6.25 µg/mL"

* * *

test: Dissociation constant, pKa of compound; assay type: physicochemical
measurementLabel: pKa

- compound: "COc1c(OCC(O)CN2CCCC2)cc2oc3cc(OCC(O)CN4CCCC4)c(CC=C(C)C)c(O)c3c(=O)c2c1CC=C(C)C (stereo not given)"
  quantitativeResult: 11.3
- compound: "COc1c(OCC(O)CN)cc2oc3cc(OCC(O)CN)c(CC=C(C)C)c(O)c3c(=O)c2c1CC=C(C)C (stereo not given)"
  quantitativeResult: 10.5
- compound: "COc1c(OCC(O)CNC(=N)N)cc2oc3cc(OCC(O)CNC(=N)N)c(CC=C(C)C)c(O)c3c(=O)c2c1CC=C(C)C (stereo not given)"
  quantitativeResult: 12.5
- compound: "COc1c(OCC(O)CN2CCNCC2)cc2oc3cc(OCC(O)CN4CCNCC4)c(CC=C(C)C)c(O)c3c(=O)c2c1CC=C(C)C (stereo not given)"
  quantitativeResult: 9.55
- compound: "COc1c(OCC(O)CN2CCCCC2)cc2oc3cc(OCC(O)CN4CCCCC4)c(CC=C(C)C)c(O)c3c(=O)c2c1CC=C(C)C (stereo not given)"
  quantitativeResult: 11.2

The measured values listed here are drawn from ChEMBL document CHEMBL4028907.
